compounds and their reported clearance
# Test Protocol: Blood clearance in mouse at 1 mg/kg, iv administered through cassette dosing
# Type: ADME, organism-based
Experimental Endpoint: clearance (mL/min/kg)

smiles_str=COc1ccc([C@H](C)NC(=O)COc2cc(C(F)(F)F)c3c(-c4ccccc4)nn(C)c3n2)cc1 meas_value=65
smiles_str=Cc1ccc2c(n1)CC[C@@H]2NC(=O)COc1cc(C)c2c(C3CC3)nn(C)c2n1 meas_value=66
smiles_str=Cc1n[nH]c(C)c1[C@H](C)NC(=O)COc1cc(C(F)(F)F)c2c(-c3ccccc3)nn(C)c2n1 meas_value=20

----------
molecules and their reported half-life
# Test Protocol: Terminal half life in mouse at 1 mg/kg, iv administered through cassette dosing
# Type: ADME, organism-based
# Condition Notes: in vivo, read-out: beta t1/2 (converted)
Experimental Endpoint: half-life (min)

smiles_str=Cc1n[nH]c(C)c1[C@H](C)NC(=O)COc1cc(C(F)(F)F)c2c(-c3ccccc3)nn(C)c2n1 experimental_endpoint=half-life value_unit=min meas_value=30
smiles_str=Cc1ccc2c(n1)CC[C@@H]2NC(=O)COc1cc(C)c2c(C3CC3)nn(C)c2n1 experimental_endpoint=half-life value_unit=min meas_value=18
smiles_str=COc1ccc([C@H](C)NC(=O)COc2cc(C(F)(F)F)c3c(-c4ccccc4)nn(C)c3n2)cc1 experimental_endpoint=half-life value_unit=min meas_value=66
